assay-text: Toxicity on nucleated cells, mice thymocytes
Type: cell-based
condition-context: mouse, thymocytes, 1 hour 30, trypan blue, read-out: LD 50 (concentration leading to a mortality of 50%)
Listed next: entries and their corresponding CC50 at 1.5 h.
Lab book: enter the figure in µM, no units written.

Worked set:
>>> data_value("CC1OC[C@@H](O)[C@H]([C@H](O)C(=O)CN[C@@H]2[C@H](O)[C@H](O[C@H]3/C=C/C=C/C=C/C=C/C=C/C=C/C=C/[C@H](C)[C@@H](O)[C@@H](C)[C@H](C)OC(=O)C[C@H](O)C[C@H](O)CC[C@@H](O)[C@H](O)C[C@H](O)C[C@]4(O)C[C@H](O)[C@@H](C(=O)O)[C@H](C3)O4)O[C@H](C)[C@H]2O)O1 (some centres unmarked)")
3.5
>>> data_value("C[C@@H]1[C@H](O)[C@@H](C)/C=C/C=C/C=C/C=C/C=C/C=C/C=C/[C@H](O[C@@H]2O[C@H](C)[C@@H](O)[C@H](NCC(=O)[C@@H](O)[C@@H]3OC(c4ccccc4)OC[C@H]3O)[C@@H]2O)C[C@@H]2O[C@](O)(C[C@@H](O)C[C@@H](O)[C@H](O)CC[C@@H](O)C[C@@H](O)CC(=O)O[C@H]1C)C[C@H](O)[C@H]2C(=O)O (some centres unmarked)")
8
>>> data_value("C[C@@H]1[C@H](O)[C@@H](C)/C=C/C=C/C=C/C=C/C=C/C=C/C=C/[C@H](O[C@@H]2O[C@H](C)[C@@H](O)[C@H](NCC3(O)O[C@H](C(=O)O)[C@@H](O)[C@@H]3O)[C@@H]2O)C[C@@H]2O[C@](O)(C[C@@H](O)C[C@@H](O)[C@H](O)CC[C@@H](O)C[C@@H](O)CC(=O)O[C@H]1C)C[C@H](O)[C@H]2C(=O)O (some centres unmarked)")
8

I am curious: what CC50 at 1.5 h value has been reported for C[C@@H]1[C@H](O)[C@@H](C)/C=C/C=C/C=C/C=C/C=C/C=C/C=C/[C@H](O[C@@H]2O[C@H](C)[C@@H](O)[C@H](NCC3(O)O[C@H](C(N)=O)[C@@H](O)[C@@H]3O)[C@@H]2O)C[C@@H]2O[C@](O)(C[C@@H](O)C[C@@H](O)[C@H](O)CC[C@@H](O)C[C@@H](O)CC(=O)O[C@H]1C)C[C@H](O)[C@H]2C(=O)O (some centres unmarked) ? 4

I am curious: what CC50 at 1.5 h value has been reported for CC(=O)NC[C@H]1OC(O)(CN[C@@H]2[C@H](O)[C@H](O[C@H]3/C=C/C=C/C=C/C=C/C=C/C=C/C=C/[C@H](C)[C@@H](O)[C@@H](C)[C@H](C)OC(=O)C[C@H](O)C[C@H](O)CC[C@@H](O)[C@H](O)C[C@H](O)C[C@]4(O)C[C@H](O)[C@@H](C(=O)O)[C@H](C3)O4)O[C@H](C)[C@H]2O)[C@@H](O)[C@@H]1O (some centres unmarked) ? 3

---

Tested on: X 63 (mice lymphoma B)
assay-text: Toxicity on nucleated cells, X 63 mice lymphoma B
Assay type: cell-based
condition-context: 1 hour 30, trypan blue, 90 min, read-out: LD 50 (concentration leading to a mortality of 50%)
Listed next: entries and their corresponding CC50.

>>> data_value("CC(=O)NC[C@H]1OC(O)(CN[C@@H]2[C@H](O)[C@H](O[C@H]3/C=C/C=C/C=C/C=C/C=C/C=C/C=C/[C@H](C)[C@@H](O)[C@@H](C)[C@H](C)OC(=O)C[C@H](O)C[C@H](O)CC[C@@H](O)[C@H](O)C[C@H](O)C[C@]4(O)C[C@H](O)[C@@H](C(=O)O)[C@H](C3)O4)O[C@H](C)[C@H]2O)[C@@H](O)[C@@H]1O (stereo partly drawn) [AmB 23 G]")
"500 µM"
>>> data_value("C[C@@H]1[C@H](O)[C@@H](C)/C=C/C=C/C=C/C=C/C=C/C=C/C=C/[C@H](O[C@@H]2O[C@H](C)[C@@H](O)[C@H](NCC3(O)O[C@H](C(=O)O)[C@@H](O)[C@@H]3O)[C@@H]2O)C[C@@H]2O[C@](O)(C[C@@H](O)C[C@@H](O)[C@H](O)CC[C@@H](O)C[C@@H](O)CC(=O)O[C@H]1C)C[C@H](O)[C@H]2C(=O)O (stereo partly drawn) [AmB 17 G, 1-amino-1-deoxy-D-arabinoglucuronyl-AmB]")
"150 µM"

I am curious: what CC50 value has been reported for CC1OC[C@@H](O)[C@H]([C@H](O)C(=O)CN[C@@H]2[C@H](O)[C@H](O[C@H]3/C=C/C=C/C=C/C=C/C=C/C=C/C=C/[C@H](C)[C@@H](O)[C@@H](C)[C@H](C)OC(=O)C[C@H](O)C[C@H](O)CC[C@@H](O)[C@H](O)C[C@H](O)C[C@]4(O)C[C@H](O)[C@@H](C(=O)O)[C@H](C3)O4)O[C@H](C)[C@H]2O)O1 (stereo partly drawn) [AmB 22 F] ? > 1000 µM
